# SYSTEM: hGLP1 receptor (Homo sapiens, UniProt P43220)
# Construct: expressed in transfected cells; host or cells: HEK (human embryonic kidney) cells co-expressing hGLP1 receptor and CRE-Luciferase
# Sequence (P43220 24-463): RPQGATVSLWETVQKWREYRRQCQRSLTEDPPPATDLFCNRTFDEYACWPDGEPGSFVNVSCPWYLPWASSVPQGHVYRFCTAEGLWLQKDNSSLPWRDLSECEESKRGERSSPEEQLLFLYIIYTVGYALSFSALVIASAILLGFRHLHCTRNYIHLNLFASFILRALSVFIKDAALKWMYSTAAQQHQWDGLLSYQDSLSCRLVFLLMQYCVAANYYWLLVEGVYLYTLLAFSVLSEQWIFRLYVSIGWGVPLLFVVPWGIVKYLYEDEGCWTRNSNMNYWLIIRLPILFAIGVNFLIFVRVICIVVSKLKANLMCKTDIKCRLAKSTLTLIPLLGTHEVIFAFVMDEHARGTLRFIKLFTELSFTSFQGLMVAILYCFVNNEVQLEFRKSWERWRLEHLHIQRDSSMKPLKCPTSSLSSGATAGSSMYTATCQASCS
# MEASUREMENT_PROTOCOL: GLP-1 receptor agonism assay (HTRF cAMP, HEK cells co-expressing hGLP1 receptor and CRE-Luciferase)
# Format: cell-based
# CONDITION_NOTES: Table 2, Ala-scanning, 0% HSA; >1000 nM = out of range; read-out: cAMP EC50
Square brackets hold non-standard residues; d marks the D form. Peptide text beside a SMILES is read from it. Bip = N[C@@H](Cc1ccc(-c2ccccc2)cc1)C(=O)O; Phe(2-F) = N[C@@H](Cc1ccccc1F)C(=O)O; Aib = CC(C)(N)C(=O)O
RECORDED_METRIC: EC50 (nM)
Quick note: give the figure in nM, leave out the unit.

# count of solved cases: 3
MOLECULE: C[C@@H](O)[C@H](NC(=O)CNC(=O)[C@H](CCC(=O)O)NC(=O)C(C)(C)NC(=O)[C@@H](N)Cc1c[nH]cn1)C(=O)N[C@@H](Cc1ccccc1)C(=O)N[C@H](C(=O)N[C@@H](CO)C(=O)N[C@@H](CC(=O)O)C(=O)N[C@@H](Cc1ccc(-c2ccccc2)cc1)C(=O)N[C@@H](Cc1ccc(-c2ccccc2)cc1)C(N)=O)[C@@H](C)O
UNIT: nM
OBS_VALUE: 0.5
--
MOLECULE: C[C@@H](O)[C@H](NC(=O)CNC(=O)[C@H](CCC(=O)O)NC(=O)C(C)(C)NC(=O)[C@@H](N)Cc1c[nH]cn1)C(=O)N[C@@H](Cc1ccccc1F)C(=O)N[C@H](C(=O)N[C@@H](CO)C(=O)N[C@@H](CC(=O)O)C(=O)N[C@@H](Cc1ccc(-c2ccccc2)cc1)C(=O)N[C@@H](Cc1ccc(-c2ccccc2)cc1)C(N)=O)[C@@H](C)O
UNIT: nM
OBS_VALUE: 0.1
--
MOLECULE: C[C@H](NC(=O)C(C)(C)NC(=O)[C@@H](N)Cc1c[nH]cn1)C(=O)NCC(=O)N[C@H](C(=O)N[C@@H](Cc1ccccc1F)C(=O)N[C@H](C(=O)N[C@@H](CO)C(=O)N[C@@H](CC(=O)O)C(=O)N[C@@H](Cc1ccc(-c2ccccc2)cc1)C(=O)N[C@@H](Cc1ccc(-c2ccccc2)cc1)C(N)=O)[C@@H](C)O)[C@@H](C)O
UNIT: nM
OBS_VALUE: 7.9

stdin: Given the entry C[C@H](NC(=O)[C@H](CO)NC(=O)[C@@H](NC(=O)[C@H](Cc1ccccc1F)NC(=O)[C@@H](NC(=O)CNC(=O)[C@H](CCC(=O)O)NC(=O)C(C)(C)NC(=O)[C@@H](N)Cc1c[nH]cn1)[C@@H](C)O)[C@@H](C)O)C(=O)N[C@@H](Cc1ccc(-c2ccccc2)cc1)C(=O)N[C@@H](Cc1ccc(-c2ccccc2)cc1)C(N)=O [RXL-3007] (H-H[Aib]EGT[Phe(2-F)]TSA[Bip][Bip]-NH2) , report its measured EC50.
stdout: 14

stdin: Given the entry C[C@H](NC(=O)[C@H](Cc1ccccc1F)NC(=O)[C@@H](NC(=O)CNC(=O)[C@H](CCC(=O)O)NC(=O)C(C)(C)NC(=O)[C@@H](N)Cc1c[nH]cn1)[C@@H](C)O)C(=O)N[C@@H](CO)C(=O)N[C@@H](CC(=O)O)C(=O)N[C@@H](Cc1ccc(-c2ccccc2)cc1)C(=O)N[C@@H](Cc1ccc(-c2ccccc2)cc1)C(N)=O [RXL-3005] (H-H[Aib]EGT[Phe(2-F)]ASD[Bip][Bip]-NH2) , report its measured EC50.
stdout: 47.5

stdin: Given the entry C[C@H](NC(=O)[C@@H](N)Cc1c[nH]cn1)C(=O)N[C@@H](CCC(=O)O)C(=O)NCC(=O)N[C@H](C(=O)N[C@@H](Cc1ccccc1F)C(=O)N[C@H](C(=O)N[C@@H](CO)C(=O)N[C@@H](CC(=O)O)C(=O)N[C@@H](Cc1ccc(-c2ccccc2)cc1)C(=O)N[C@@H](Cc1ccc(-c2ccccc2)cc1)C(N)=O)[C@@H](C)O)[C@@H](C)O , report its measured EC50.
stdout: 0.2

====

# SYSTEM: hGLP1 receptor (Homo sapiens)
# Construct: expressed in transfected cells; host or cells: HEK (human embryonic kidney) cells co-expressing hGLP1 receptor and CRE-Luciferase
# MEASUREMENT_PROTOCOL: GLP-1 receptor agonism assay (HTRF cAMP, HEK cells co-expressing hGLP1 receptor and CRE-Luciferase)
# Type: cell-based
# CONDITION_NOTES: Table 4, Aib-scan peptides, 0% HSA
Square brackets hold non-standard residues; d marks the D form. Peptide text beside a SMILES is read from it. Bip = N[C@@H](Cc1ccc(-c2ccccc2)cc1)C(=O)O; αMePhe(2-F) = C[C@](N)(Cc1ccccc1F)C(=O)O; Aib = CC(C)(N)C(=O)O
Catalogue of pEC50 values
// no unit string in output, number only

# count of solved cases: 3
COMPOUND: C[C@@H](O)[C@H](NC(=O)C(C)(C)NC(=O)[C@H](CCC(=O)O)NC(=O)C(C)(C)NC(=O)[C@@H](N)Cc1c[nH]cn1)C(=O)N[C@@](C)(Cc1ccccc1F)C(=O)N[C@H](C(=O)N[C@@H](CO)C(=O)N[C@@H](CC(=O)O)C(=O)N[C@@H](Cc1ccc(-c2ccccc2)cc1)C(=O)N[C@@H](Cc1ccc(-c2ccccc2)cc1)C(N)=O)[C@@H](C)O [RXL-3032] (H-H[Aib]E[Aib]T[αMePhe(2-F)]TSD[Bip][Bip]-NH2)
pEC50: 7.80

COMPOUND: C[C@@H](O)[C@H](NC(=O)CNC(=O)C(C)(C)NC(=O)C(C)(C)NC(=O)[C@@H](N)Cc1c[nH]cn1)C(=O)N[C@@](C)(Cc1ccccc1F)C(=O)N[C@H](C(=O)N[C@@H](CO)C(=O)N[C@@H](CC(=O)O)C(=O)N[C@@H](Cc1ccc(-c2ccccc2)cc1)C(=O)N[C@@H](Cc1ccc(-c2ccccc2)cc1)C(N)=O)[C@@H](C)O [RXL-3031] (H-H[Aib][Aib]GT[αMePhe(2-F)]TSD[Bip][Bip]-NH2)
pEC50: 8.31

COMPOUND: C[C@@H](O)[C@H](NC(=O)CNC(=O)[C@H](CCC(=O)O)NC(=O)C(C)(C)NC(=O)[C@@H](N)Cc1c[nH]cn1)C(=O)N[C@@](C)(Cc1ccccc1F)C(=O)NC(C)(C)C(=O)N[C@@H](CO)C(=O)N[C@@H](CC(=O)O)C(=O)N[C@@H](Cc1ccc(-c2ccccc2)cc1)C(=O)N[C@@H](Cc1ccc(-c2ccccc2)cc1)C(N)=O [RXL-3034] (H-H[Aib]EGT[αMePhe(2-F)][Aib]SD[Bip][Bip]-NH2)
pEC50: 7.04

stdin: Missing value: pEC50, hGLP1 receptor (Homo sapiens), entry C[C@@H](O)[C@H](NC(=O)CNC(=O)[C@H](CCC(=O)O)NC(=O)C(C)(C)NC(=O)[C@@H](N)Cc1c[nH]cn1)C(=O)N[C@@](C)(Cc1ccccc1F)C(=O)N[C@H](C(=O)N[C@@H](CO)C(=O)NC(C)(C)C(=O)N[C@@H](Cc1ccc(-c2ccccc2)cc1)C(=O)N[C@@H](Cc1ccc(-c2ccccc2)cc1)C(N)=O)[C@@H](C)O [RXL-3036] (H-H[Aib]EGT[αMePhe(2-F)]TS[Aib][Bip][Bip]-NH2) . Fill in?
stdout: 7.04

====

Catalogue of Emax values
# SYSTEM: hGLP1 receptor (Homo sapiens, UniProt P43220)
# Construct: expressed in transfected cells; host or cells: HEK (human embryonic kidney) cells co-expressing hGLP1 receptor and CRE-Luciferase
# MEASUREMENT_PROTOCOL: GLP-1 receptor agonism assay (HTRF cAMP, HEK cells co-expressing hGLP1 receptor and CRE-Luciferase)
# Type: cell-based
# CONDITION_NOTES: HEK293; Table 6 potency profile
Square brackets hold non-standard residues; d marks the D form. Peptide text beside a SMILES is read from it. Bip = N[C@@H](Cc1ccc(-c2ccccc2)cc1)C(=O)O; αMePhe(2-F) = C[C@](N)(Cc1ccccc1F)C(=O)O; Phe(2-F) = N[C@@H](Cc1ccccc1F)C(=O)O; Aib = CC(C)(N)C(=O)O
Quick note: give the figure in %, leave out the unit.

MOLECULE: C[C@H](NC(=O)[C@@H](NC(=O)[C@H](Cc1ccccc1F)NC(=O)[C@@H](NC(=O)CNC(=O)[C@H](CCC(=O)O)NC(=O)C(C)(C)NC(=O)[C@@H](N)Cc1c[nH]cn1)[C@@H](C)O)[C@@H](C)O)C(=O)N[C@@H](CC(=O)O)C(=O)N[C@@H](Cc1ccc(-c2ccccc2)cc1)C(=O)N[C@@H](Cc1ccc(-c2ccccc2)cc1)C(N)=O [RXL-3006] (H-H[Aib]EGT[Phe(2-F)]TAD[Bip][Bip]-NH2)
Emax (%): 120

stdin: Given the entry C[C@@H](O)[C@H](NC(=O)CNC(=O)[C@H](CCC(=O)O)NC(=O)C(C)(C)NC(=O)[C@@H](N)Cc1c[nH]cn1)C(=O)N[C@@H](Cc1ccccc1Cl)C(=O)N[C@H](C(=O)N[C@@H](CO)C(=O)N[C@@H](CC(=O)O)C(=O)N[C@@H](Cc1ccc(-c2ccccc2)cc1)C(=O)N[C@@H](Cc1ccc(-c2ccccc2)cc1)C(N)=O)[C@@H](C)O , report its measured Emax.
stdout: 91.3

stdin: Given the entry C[C@@H](O)[C@H](NC(=O)CNC(=O)[C@H](CCC(=O)O)NC(=O)C(C)(C)NC(=O)C(C)(C)N)C(=O)N[C@@](C)(Cc1ccccc1F)C(=O)N[C@H](C(=O)N[C@@H](CO)C(=O)N[C@@H](CC(=O)O)C(=O)N[C@@H](Cc1ccc(-c2ccccc2)cc1)C(=O)N[C@@H](Cc1ccc(-c2ccccc2)cc1)C(N)=O)[C@@H](C)O [RXL-3030] (H-[Aib][Aib]EGT[αMePhe(2-F)]TSD[Bip][Bip]-NH2) , report its measured Emax.
stdout: 112

Measured values drawn from paper PMC11721672 for this set.
